Tested on: E. coli (MDR00501)
protocol: MIC and MBC by broth microdilution
Type: cell-based
setup_conditions: E. coli; ratio in parentheses

compound: Cc1c(NN=C(C#N)C2=NC(=O)CS2)c(=O)n(-c2ccccc2)n1C [Compound 13]
target_desc: E. coli (MDR00501)
MBC/MIC: 0.5
--
compound: N#CC(=Cc1cn(-c2ccccc2)nc1-c1ccccc1)C1=NC(=O)CS1 [Compound 4a]
target_desc: E. coli (MDR00501)
MBC/MIC: 0.5
--
compound: N#CC(=Cc1ccccc1O)C1=NC(=O)C(=Cc2cn(-c3ccccc3)nc2-c2ccccc2)S1 [Compound 5a]
target_desc: E. coli (MDR00501)
MBC/MIC: 1
--
compound: Cc1c(NC(=O)CC2=NC(=O)CS2)c(=O)n(-c2ccccc2)n1C [Compound 10]
target_desc: E. coli (MDR00501)
MBC/MIC: 1
--
compound: CCOC(=O)c1c(N)csc1-c1cn(-c2ccccc2)nc1-c1ccc(C)cc1 [Compound 7b]
target_desc: E. coli (MDR00501)
MBC/MIC: 0.5

* * *

Reported IC50 at 72 h values are given for each entry in this list.
protocol: In vitro cytotoxicity on normal cell line
Format: cell-based, rat
setup_conditions: rat, H9C2 heart/myocardium cells

smiles_record: CCOC(=O)c1c(N)csc1-c1cn(-c2ccccc2)nc1-c1ccc(C)cc1
IC50 at 72 h [µM]: 102

smiles_record: Cc1c(NC(=O)CC2=NC(=O)CS2)c(=O)n(-c2ccccc2)n1C
IC50 at 72 h [µM]: 99.8

smiles_record: N#CC(=Cc1ccccc1O)C1=NC(=O)C(=Cc2cn(-c3ccccc3)nc2-c2ccccc2)S1
IC50 at 72 h [µM]: 99.2

smiles_record: Cc1c(NN=C(C#N)C2=NC(=O)CS2)c(=O)n(-c2ccccc2)n1C
IC50 at 72 h [µM]: 61.6

smiles_record: N#CC(=Cc1cn(-c2ccccc2)nc1-c1ccccc1)C1=NC(=O)CS1
IC50 at 72 h [µM]: 103

* * *

target_desc: dihydrofolate reductase (DHFR) (Homo sapiens)
Sequence (P00374 whole entry): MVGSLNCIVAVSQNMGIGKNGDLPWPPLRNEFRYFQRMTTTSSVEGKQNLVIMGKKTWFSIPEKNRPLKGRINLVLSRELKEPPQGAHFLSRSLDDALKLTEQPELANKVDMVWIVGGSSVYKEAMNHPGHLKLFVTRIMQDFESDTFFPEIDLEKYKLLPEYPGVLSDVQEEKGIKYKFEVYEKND
measurement_type: IC50

compound: Cc1c(NN=C(C#N)C2=NC(=O)CS2)c(=O)n(-c2ccccc2)n1C [Compound 13]
observed: 2670 nM
//
compound: Cc1c(NC(=O)CC2=NC(=O)CS2)c(=O)n(-c2ccccc2)n1C [Compound 10]
observed: 1420 nM
//
compound: CCOC(=O)c1c(N)csc1-c1cn(-c2ccccc2)nc1-c1ccc(C)cc1 [Compound 7b]
observed: 520 nM
//
compound: N#CC(=Cc1cn(-c2ccccc2)nc1-c1ccccc1)C1=NC(=O)CS1 [Compound 4a]
observed: 980 nM
//
compound: N#CC(=Cc1ccccc1O)C1=NC(=O)C(=Cc2cn(-c3ccccc3)nc2-c2ccccc2)S1 [Compound 5a]
observed: 1110 nM

* * *

Tested on: A. baumannii
protocol: Single-step resistance selection
Type: cell-based
setup_conditions: 4 × MIC, 48 h
measurement_type: Single-step resistance frequency (mutation frequency)

smiles_record: N#CC(=Cc1ccccc1O)C1=NC(=O)C(=Cc2cn(-c3ccccc3)nc2-c2ccccc2)S1
observed: 1.80 × 10^–8
--
smiles_record: Cc1c(NC(=O)CC2=NC(=O)CS2)c(=O)n(-c2ccccc2)n1C
observed: 2.53 × 10^–8
--
smiles_record: Cc1c(NN=C(C#N)C2=NC(=O)CS2)c(=O)n(-c2ccccc2)n1C
observed: 2.71 × 10^–7
--
smiles_record: N#CC(=Cc1cn(-c2ccccc2)nc1-c1ccccc1)C1=NC(=O)CS1
observed: 1.00 × 10^–9
--
smiles_record: CCOC(=O)c1c(N)csc1-c1cn(-c2ccccc2)nc1-c1ccc(C)cc1
observed: 2.11 × 10^–6

* * *

Test system: S. epidermidis
protocol: Single-step resistance selection
Format: cell-based, Staphylococcus epidermidis
setup_conditions: 4 × MIC, 48 h
Reported Single-step resistance frequency (mutation frequency) values are given for each entry in this list.
measurement_type: Single-step resistance frequency (mutation frequency)

smiles_record: CCOC(=O)c1c(N)csc1-c1cn(-c2ccccc2)nc1-c1ccc(C)cc1
target_desc: S. epidermidis
observed: 1.62 × 10^–6
//
smiles_record: N#CC(=Cc1cn(-c2ccccc2)nc1-c1ccccc1)C1=NC(=O)CS1
target_desc: S. epidermidis
observed: 2.43 × 10^–7
//
smiles_record: Cc1c(NC(=O)CC2=NC(=O)CS2)c(=O)n(-c2ccccc2)n1C
target_desc: S. epidermidis
observed: 3.00 × 10^–8
//
smiles_record: Cc1c(NN=C(C#N)C2=NC(=O)CS2)c(=O)n(-c2ccccc2)n1C
target_desc: S. epidermidis
observed: 4.15 × 10^–8
//
smiles_record: N#CC(=Cc1ccccc1O)C1=NC(=O)C(=Cc2cn(-c3ccccc3)nc2-c2ccccc2)S1
target_desc: S. epidermidis
observed: 2.71 × 10^–8

* * *

System: E. coli
protocol: Single-step resistance selection
Format: cell-based
setup_conditions: 4 × MIC, 48 h
measurement_type: Single-step resistance frequency (mutation frequency)

compound: CCOC(=O)c1c(N)csc1-c1cn(-c2ccccc2)nc1-c1ccc(C)cc1 [Compound 7b]
observed: 1.90 × 10^–6
--
compound: Cc1c(NN=C(C#N)C2=NC(=O)CS2)c(=O)n(-c2ccccc2)n1C [Compound 13]
observed: 2.90 × 10^–8
--
compound: N#CC(=Cc1ccccc1O)C1=NC(=O)C(=Cc2cn(-c3ccccc3)nc2-c2ccccc2)S1 [Compound 5a]
observed: 2.21 × 10^–7
--
compound: Cc1c(NC(=O)CC2=NC(=O)CS2)c(=O)n(-c2ccccc2)n1C [Compound 10]
observed: 2.60 × 10^–8
--
compound: N#CC(=Cc1cn(-c2ccccc2)nc1-c1ccccc1)C1=NC(=O)CS1 [Compound 4a]
observed: 1.20 × 10^–9

* * *

Reported MIC values are given for each entry in this list.
Tested on: C. albicans200 (MDR00200)
protocol: MIC and MFC by broth microdilution
Format: cell-based, Candida albicans
setup_conditions: Candida albicans, read-out: MIC (mean ± SEM), C. albicans200; broth microdilution

compound: Cc1c(NC(=O)CC2=NC(=O)CS2)c(=O)n(-c2ccccc2)n1C
MIC [µg/mL]: 0.47
--
compound: N#CC(=Cc1ccccc1O)C1=NC(=O)C(=Cc2cn(-c3ccccc3)nc2-c2ccccc2)S1
MIC [µg/mL]: 0.24
--
compound: N#CC(=Cc1cn(-c2ccccc2)nc1-c1ccccc1)C1=NC(=O)CS1
MIC [µg/mL]: 0.22
--
compound: CCOC(=O)c1c(N)csc1-c1cn(-c2ccccc2)nc1-c1ccc(C)cc1
MIC [µg/mL]: 0.23
--
compound: CC(=O)N1CCN(c2ccc(OCC3COC(Cn4ccnc4)(c4ccc(Cl)cc4Cl)O3)cc2)CC1 (centres unmarked) [KCA, Ketoconazole, reference compound]
MIC [µg/mL]: 0.45

* * *

Reported zone of inhibition at 100000 µg/mL values are given for each entry in this list.
System: C. albicans200 (MDR00200)
protocol: Agar well-diffusion antimicrobial sensitivity assay
Assay type: cell-based, Candida albicans
setup_conditions: Candida albicans, read-out: Inhibition Zone (IZ)

compound: CCOC(=O)C=c1[nH]c(=O)c(=Cc2cn(-c3ccccc3)nc2-c2ccc(C)cc2)s1
zone of inhibition at 100000 µg/mL [mm]: 16
//
compound: Cc1c(NN=C(C#N)C2=NC(=O)CS2)c(=O)n(-c2ccccc2)n1C
zone of inhibition at 100000 µg/mL [mm]: 28
//
compound: Cc1ccc(-c2nn(-c3ccccc3)cc2C=C(C#N)C2=NC(=O)CS2)cc1
zone of inhibition at 100000 µg/mL [mm]: 23
//
compound: CC(=O)N1CCN(c2ccc(OCC3COC(Cn4ccnc4)(c4ccc(Cl)cc4Cl)O3)cc2)CC1 (centres unmarked) [KCA, Ketoconazole, reference compound]
zone of inhibition at 100000 µg/mL [mm]: 24
//
compound: CCOC(=O)c1c(N)csc1-c1cn(-c2ccccc2)nc1-c1ccc(C)cc1
zone of inhibition at 100000 µg/mL [mm]: 32
//
compound: Cc1c(NC(=O)CC2=NC(=O)CS2)c(=O)n(-c2ccccc2)n1C
zone of inhibition at 100000 µg/mL [mm]: 30
//
compound: Cc1c(NN=C2SC(CC#N)=NC2=O)c(=O)n(-c2ccccc2)n1C
zone of inhibition at 100000 µg/mL [mm]: 20
//
compound: N#CC(=Cc1ccccc1O)C1=NC(=O)C(=Cc2cn(-c3ccccc3)nc2-c2ccccc2)S1
zone of inhibition at 100000 µg/mL [mm]: 30

* * *

protocol: In vitro cytotoxicity on normal cell line
Format: cell-based, mouse
setup_conditions: mouse, BNL normal liver cells
Reported IC50 at 72 h values are given for each entry in this list.
measurement_type: IC50 at 72 h

compound: CCOC(=O)c1c(N)csc1-c1cn(-c2ccccc2)nc1-c1ccc(C)cc1 [Compound 7b]
measurement_type: IC50 at 72 h
observed: 103 µM

compound: N#CC(=Cc1cn(-c2ccccc2)nc1-c1ccccc1)C1=NC(=O)CS1 [Compound 4a]
measurement_type: IC50 at 72 h
observed: 99.4 µM

compound: Cc1c(NC(=O)CC2=NC(=O)CS2)c(=O)n(-c2ccccc2)n1C [Compound 10]
measurement_type: IC50 at 72 h
observed: 98.9 µM

compound: N#CC(=Cc1ccccc1O)C1=NC(=O)C(=Cc2cn(-c3ccccc3)nc2-c2ccccc2)S1 [Compound 5a]
measurement_type: IC50 at 72 h
observed: 103 µM

compound: Cc1c(NN=C(C#N)C2=NC(=O)CS2)c(=O)n(-c2ccccc2)n1C [Compound 13]
measurement_type: IC50 at 72 h
observed: 79.5 µM
